- target_or_test_system: AR (Homo sapiens, UniProt P10275)
- Construct: endogenous in cells; host or cells: VCaP cells
- Sequence (P10275 1-920): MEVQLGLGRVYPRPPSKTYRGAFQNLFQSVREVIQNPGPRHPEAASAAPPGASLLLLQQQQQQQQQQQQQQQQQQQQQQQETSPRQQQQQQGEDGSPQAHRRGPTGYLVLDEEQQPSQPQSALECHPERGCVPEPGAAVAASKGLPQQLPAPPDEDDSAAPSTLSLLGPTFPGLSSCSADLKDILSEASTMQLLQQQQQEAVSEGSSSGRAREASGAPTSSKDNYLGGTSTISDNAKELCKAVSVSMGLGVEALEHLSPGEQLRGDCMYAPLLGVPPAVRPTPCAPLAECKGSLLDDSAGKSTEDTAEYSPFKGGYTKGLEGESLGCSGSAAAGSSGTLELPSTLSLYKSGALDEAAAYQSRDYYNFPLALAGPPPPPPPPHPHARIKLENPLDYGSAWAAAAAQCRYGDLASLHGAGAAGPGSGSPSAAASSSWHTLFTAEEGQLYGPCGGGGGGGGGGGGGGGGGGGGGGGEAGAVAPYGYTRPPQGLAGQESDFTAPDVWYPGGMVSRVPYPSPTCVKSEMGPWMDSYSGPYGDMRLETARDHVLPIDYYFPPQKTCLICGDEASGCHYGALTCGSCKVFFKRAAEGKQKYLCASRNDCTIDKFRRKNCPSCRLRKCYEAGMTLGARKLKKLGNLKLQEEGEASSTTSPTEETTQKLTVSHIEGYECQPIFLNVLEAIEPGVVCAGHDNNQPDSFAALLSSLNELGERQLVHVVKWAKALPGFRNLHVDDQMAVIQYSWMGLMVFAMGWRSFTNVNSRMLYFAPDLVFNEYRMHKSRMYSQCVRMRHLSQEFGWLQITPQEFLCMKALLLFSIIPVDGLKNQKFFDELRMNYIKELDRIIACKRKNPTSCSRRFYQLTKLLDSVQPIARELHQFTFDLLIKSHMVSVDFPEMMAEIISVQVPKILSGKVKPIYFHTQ
- assay: VCAP AR Degradation Assay
- Assay type: cell-based
- study_conditions: VCaP cells, 24 h, AR ELISA; lowest measured AR level normalized to DMSO control (AR degradation efficiency)
Where a name gives a salt, the structure may show the parent alone.

{"molecule": "C[C@@H]1CN(CCCO[C@H]2CC[C@H](N3C(=S)N(c4cnc(C#N)c(C(F)(F)F)c4)C(=O)C3(C)C)CC2)C[C@H](C)N1CC(=O)Nc1cccc2c(N3CCC(=O)NC3=O)nn(C)c12 [Cmpd 7, hydrochloride]", "target_or_test_system": "AR (Homo sapiens, UniProt P10275)", "Y": "** (20%<Y≤%)"}
{"molecule": "C[C@@H]1C[C@H](OCCO[C@H]2CC[C@H](N3C(=S)N(c4cnc(C#N)c(C(F)(F)F)c4)C(=O)C3(C)C)CC2)C[C@H](C)N1CC(=O)Nc1cccc2c(N3CCC(=O)NC3=O)nn(C)c12 [Cmpd 34]", "target_or_test_system": "AR (Homo sapiens, UniProt P10275)", "Y": "** (20%<Y≤%)"}
